target: T1, rh integrin α4β7 (R&D Systems #5397-A30) (human, UniProt P13612 34-970; P26010 20-723); assay: competition ELISA vs MAdCAM-1
T1 construct: bought; coated on a nickel coated plate; also called immobilized α4β7; immobilized α4β7 integrin protein
pIC50: −log10 of the molar value. Bridge positions count the residues as written; N and C are the ends. Square brackets hold non-standard residues; d marks the D form. NMeR = CN[C@@H](CCCNC(=N)N)C(=O)O; Pen = CC(C)(S)[C@H](N)C(=O)O
measureName: pIC50

// known answers, use as guide
{"binder": "XRSDTLXWK (Ac Pen N-Me-R S D T L Pen W k NH2; disulfide Pen-Pen, also called peptide 208) [SEQ ID NO: 208]", "measureName": "pIC50", "quantitativeReadout": 7.52}
{"binder": "Ac-[Pen]RSDTLC[dK]-NH2 (disulfide 1-7; also: homodimer via DIG linker on D-Lys8 side chains, also called peptide 207) [SEQ ID NO: 207]", "measureName": "pIC50", "quantitativeReadout": 7.59}

1. Ac-C[NMeR]SDTLCGEK-OH (disulfide 1-7 (inferred), also called peptide 199) [SEQ ID NO: 199]
2. Ac-C[NMeR]SDTLCGE-NH2 (disulfide 1-7 (inferred), also called peptide 198) [SEQ ID NO: 198]
Q. // returns 1 or 2 , whichever has the lower pIC50 Selection: enter the item's label.
A. 1
